Molecular target: T1, recombinant human PD-1 Fc chimera (human, UniProt Q15116 25-167)
T1 construct: Bought protein (R&D 1086-PD in the HTRF assay); also called human PD-1-hu Fc; huPD-1Fc; not shown: human Fc
T1 sequence (Q15116 25-167 limits assumed, change not shown): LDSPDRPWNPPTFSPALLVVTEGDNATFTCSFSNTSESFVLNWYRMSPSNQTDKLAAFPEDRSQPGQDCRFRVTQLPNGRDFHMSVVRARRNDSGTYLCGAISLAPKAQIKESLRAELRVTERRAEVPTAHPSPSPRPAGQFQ
Experiment: SPR Biacore T200, single cycle kinetics, human PD-1-hu Fc amine coupled to CM5, 1:1 model
Reported pKd values for the following binders.
Recall that pKd is obtained by taking minus log10 of the concentration measured in molar.

1.92b-4GS-1.39a (other, Biparatopic VH-linker-VH; built from its parts here because it is not clear whether 1112 is the protein or the nucleic acid) EVQLVESGGGLVKPGGSLRLSCAASGFTFSDESMTWMRQAPGKGLEWVSYISSGGGVKFYADSVKGRFTISRDNAKNSLYLQMNSLRAEDTAVYYCAREAPLRLGESPHDAFDISGQGTMVTVSSGGGGSGGGGSGGGGSGGGGSEVQLVESGGGLVQPGRSLRLSCAASGFTFDDYALHWVRQAPGKDLEWVSGISWNGGSYGYADSVKGRFTISRDNAKNSLYLQMNSLRAEDTALYYCVREKGPGLTGSTADYYGLDAWGQGTMVTVSS; 10.92
1.1b-2GS-1.1a (other, Biparatopic VH-linker-VH; His tag implied by the assays; not in the chain) QVQLVESGGGLVKPGGSLRLSCAASGFTFSDYTMTWMRQAPGKGLEWVSYISTGGTIKYYTDSVKGRFTISRDNAKNSLYLQMNSLRADDTAVYYCAREAPLRLGESPHDAFDIWGQGTMVTVSSGGGGSGGGGSEVQLLESGGGSVQPGRSLRLSCAASGFTFDDHAMHWVRQAPGKGLEWVSGISWNSGSMGYADSVKDRFTISRDNAKSSLYLQMNSLRAEDTALYYCVREKGPGLTGSTADYYGLDVWGQGTMVTVSS; 10.46
1.1b-4GS-1.1a (other, Biparatopic VH-linker-VH) QVQLVESGGGLVKPGGSLRLSCAASGFTFSDYTMTWMRQAPGKGLEWVSYISTGGTIKYYTDSVKGRFTISRDNAKNSLYLQMNSLRADDTAVYYCAREAPLRLGESPHDAFDIWGQGTMVTVSSGGGGSGGGGSGGGGSGGGGSEVQLLESGGGSVQPGRSLRLSCAASGFTFDDHAMHWVRQAPGKGLEWVSGISWNSGSMGYADSVKDRFTISRDNAKSSLYLQMNSLRAEDTALYYCVREKGPGLTGSTADYYGLDVWGQGTMVTVSS; 10.46
1.1b-6GS-1.1a (other, Biparatopic VH-linker-VH) QVQLVESGGGLVKPGGSLRLSCAASGFTFSDYTMTWMRQAPGKGLEWVSYISTGGTIKYYTDSVKGRFTISRDNAKNSLYLQMNSLRADDTAVYYCAREAPLRLGESPHDAFDIWGQGTMVTVSSGGGGSGGGGSGGGGSGGGGSGGGGSGGGGSEVQLLESGGGSVQPGRSLRLSCAASGFTFDDHAMHWVRQAPGKGLEWVSGISWNSGSMGYADSVKDRFTISRDNAKSSLYLQMNSLRAEDTALYYCVREKGPGLTGSTADYYGLDVWGQGTMVTVSS; 10.55
1.92b-4GS-1.62a (other, Biparatopic VH-linker-VH; also called 1.92-4GS-1.62a; 1.92b-4gs-2.12a) EVQLVESGGGLVKPGGSLRLSCAASGFTFSDESMTWMRQAPGKGLEWVSYISSGGGVKFYADSVKGRFTISRDNAKNSLYLQMNSLRAEDTAVYYCAREAPLRLGESPHDAFDISGQGTMVTVSSGGGGSGGGGSGGGGSGGGGSEVQLVESGGGVVRPGGSLRLSCAASGFTFDDYAMSWVRQAPGKGLEWVSGITWNAGSTGYADSVKGRFTISRDNAKNSLYLQMNSLRAEDTALYYCVRDKYSYAWSYDDFDIWGQGTMVTVSS; 11.01

Form field: reported pKd of 1.1a (VHH, also called Humabody 1.1a; VH single domain antibody 1.1a) VHH: EVQLLESGGGSVQPGRSLRLSCAASGFTFDDHAMHWVRQAPGKGLEWVSGISWNSGSMGYADSVKDRFTISRDNAKSSLYLQMNSLRAEDTALYYCVREKGPGLTGSTADYYGLDVWGQGTMVTVSS
9.17

Taken from patent US20220306744A1.
